log10(GI50) for assorted molecules
Test system: panel of 55 breast cancer cell lines
measurementDescription: Cell growth inhibition assay (Cell Titer Glo, 72 h, 9 doses; GI50, TGI, LC50)
Format: cell-based, human
particulars: Homo sapiens, SUM-159-PT, SUM159PT cell line; censored GI50 values; read-out: GI50 (converted)
property: log10(GI50) (log10 of the value in nM)

{"columns": ["compoundString", "log10(GI50)"],
 "data": [
  ["Cc1cncc2cccc(S(=O)(=O)N3CCCN(C(=O)CN)C[C@@H]3C)c12", 3.24],
  ["COc1cccc2c1C(=O)c1c(O)c3c(c(O)c1C2=O)C[C@@](O)(C(=O)CO)C[C@@H]3O[C@H]1C[C@H](N)[C@H](O)[C@H](C)O1", 2.54],
  ["CO[C@H]1C[C@@H]2CC[C@@H](C)[C@@](O)(O2)C(=O)C(=O)N2CCCC[C@H]2C(=O)O[C@H]([C@H](C)C[C@@H]2CC[C@@H](OC(=O)C(C)(CO)CO)[C@H](OC)C2)CC(=O)[C@H](C)/C=C(\\C)[C@@H](O)[C@@H](OC)C(=O)[C@H](C)C[C@H](C)/C=C/C=C/C=C/1C", 2.36],
  ["CC(=O)O[C@@]12CO[C@@H]1C[C@H](O)[C@@]1(C)C(=O)[C@H](O)C3=C(C)[C@@H](OC(=O)[C@H](O)[C@@H](NC(=O)OC(C)(C)C)c4ccccc4)C[C@@](O)([C@@H](OC(=O)c4ccccc4)[C@H]21)C3(C)C", 0.66],
  ["COc1cc(Nc2c(C#N)cnc3cc(OCCCN4CCN(C)CC4)c(OC)cc23)c(Cl)cc1Cl", 3.14],
  ["CC[C@@]1(O)C(=O)OCc2c1cc1n(c2=O)Cc2cc3c(CN(C)C)c(O)ccc3nc2-1", 2.87],
  ["CCNCCCNC/C=C\\CNCCCNCC", 5.03],
  ["Cn1c(=O)n(-c2ccc(C(C)(C)C#N)cc2)c2c3cc(-c4cnc5ccccc5c4)ccc3ncc21", 1.56],
  ["CO[C@H]1C[C@@H]2CC[C@@H](C)[C@@](O)(O2)C(=O)C(=O)N2CCCC[C@H]2C(=O)O[C@H]([C@H](C)C[C@@H]2CC[C@@H](O)[C@H](OC)C2)CC(=O)[C@H](C)/C=C(\\C)[C@@H](O)[C@@H](OC)C(=O)[C@H](C)C[C@H](C)/C=C/C=C/C=C/1C", 2.86]
]}

###

GI50 for assorted molecules
Tested on: panel of 55 breast cancer cell lines
measurementDescription: Cell growth inhibition assay (Cell Titer Glo, 72 h, 9 doses; GI50, TGI, LC50)
Assay type: cell-based, human
particulars: cell line HCC1187; value is the negative log10 of mol/L

{"columns": ["molecule", "GI50"],
 "data": [
  ["Oc1cc(-c2nc(-c3ccccc3)[nH]c2-c2ccncc2)ccc1Cl", 5.07],
  ["CC(=O)Nc1cccc(-n2c(=O)n(C3CC3)c(=O)c3c(Nc4ccc(I)cc4F)n(C)c(=O)c(C)c32)c1.C[S+](C)[O-] [GSK1120212B]", 4.78],
  ["CCn1cc(-c2ccnc3[nH]c(-c4cccc(CN(C)C)c4)cc23)c(-c2ccc(NC(=O)N(C)C)cc2)n1", 7.95],
  ["CC(C)Oc1ccc(C(=O)N[C@H](CNC(=O)CN(C)C)Cc2ccc(-c3cn4cccc([C@H](C)O)c4n3)cc2)cc1Cl", 7.52],
  ["NC(=O)Nc1sc(-c2ccc(F)cc2)cc1C(N)=O", 5.67],
  ["O=C1C(Cl)=C(NCCN2CCOCC2)C(=O)c2ncccc21", 5.68],
  ["Cc1cc(C(=O)N2CCN(c3cccc(Cl)c3)CC2)n(-c2ccccc2)n1 [XRP44X]", 6.23]
]}

###

GI50 for assorted molecules
Tested on: panel of 55 breast cancer cell lines
measurementDescription: Cell growth inhibition assay (Cell Titer Glo, 72 h, 9 doses; GI50, TGI, LC50)
Type: cell-based, human
particulars: BT20 cell line; censored GI50 values; value is the negative log10 of mol/L
property: GI50

{"columns": ["molecule", "property", "readoutValue"],
 "data": [
  ["CC(/C=C/C(=O)NO)=C\\[C@@H](C)C(=O)c1ccc(N(C)C)cc1", "GI50", 4.81],
  ["CC(C)[C@H](CO)Nc1nc(Nc2cccc(Cl)c2)c2ncn(C(C)C)c2n1", "GI50", 4.56],
  ["O=C1NC(=O)/C(=C/c2ccc(-c3ccc(F)cc3O)o2)S1", "GI50", 4.65],
  ["CNC(=O)c1c(F)cccc1Nc1nc(Nc2cc3c(cc2OC)CCN3C(=O)CN(C)C)nc2[nH]ccc12 [GSK1838705A]", "GI50", 4.63],
  ["O=c1[nH]c(=O)n([C@H]2C[C@H](O)[C@@H](CO)O2)cc1F", "GI50", 3.49]
]}

###

Tested on: panel of 55 breast cancer cell lines
measurementDescription: Cell growth inhibition assay (Cell Titer Glo, 72 h, 9 doses; GI50, TGI, LC50)
Type: cell-based, human
particulars: cell line UACC893; value is the negative log10 of mol/L
property: GI50

{"columns": ["compound", "property", "readoutValue"],
 "data": [
  ["COc1ccc(C2=N[C@@H](c3ccc(Cl)cc3)[C@@H](c3ccc(Cl)cc3)N2C(=O)N2CCNC(=O)C2)c(OC(C)C)c1 [Nutlin 3a]", "GI50", 4.69],
  ["CCNCCCCNCCCCNCCCCNCCCCNCC=CCNCCCCNCCCCNCCCCNCCCCNCC.Cl.Cl.Cl.Cl.Cl.Cl.Cl.Cl.Cl.Cl (stereo in doubt) [CGC-11144]", "GI50", 6.60],
  ["CCn1cc(-c2ccnc3[nH]c(-c4cccc(CN(C)C)c4)cc23)c(-c2ccc(NC(=O)N(C)C)cc2)n1 [GSK1070916]", "GI50", 5.06],
  ["C=CCNC1=C2C[C@@H](C)C[C@H](OC)[C@H](O)[C@@H](C)/C=C(\\C)[C@H](OC(N)=O)[C@@H](OC)/C=C\\C=C(/C)C(=O)NC(=CC1=O)C2=O [17-AAG]", "GI50", 7.90],
  ["COc1cc2ncnc(Nc3cccc(Cl)c3)c2cc1OC [AG1478]", "GI50", 5.65],
  ["CC(C)(C)c1cc(C=C(C#N)C#N)cc(Br)c1O [AG1024]", "GI50", 4.75],
  ["N.N.O=C([O-])C1(C(=O)[O-])CCC1.[Pt+2] [Carboplatin]", "GI50", 3.04]
]}

###

System: panel of 55 breast cancer cell lines
measurementDescription: Cell growth inhibition assay (Cell Titer Glo, 72 h, 9 doses; GI50, TGI, LC50)
Assay type: cell-based, human
particulars: cell line HCC70; value is the negative log10 of mol/L
GI50 for assorted compounds
property: GI50

{"columns": ["compound", "readoutValue"],
 "data": [
  ["O=S(=O)(CC1CS1)c1ccc(Oc2ccccc2)cc1 (centres unmarked)", 3.88],
  ["Oc1cc(-c2nc(-c3ccccc3)[nH]c2-c2ccncc2)ccc1Cl", 4.50],
  ["NC(=O)Nc1sc(-c2ccc(F)cc2)cc1C(N)=O", 5.44],
  ["Cc1cc(C(=O)N2CCN(c3cccc(Cl)c3)CC2)n(-c2ccccc2)n1 [XRP44X]", 5.98],
  ["COc1cccc(-c2cc(=O)c3ccccc3o2)c1N", 4.30],
  ["CC(C)Oc1ccc(C(=O)N[C@H](CNC(=O)CN(C)C)Cc2ccc(-c3cn4cccc([C@H](C)O)c4n3)cc2)cc1Cl", 7.68],
  ["CC(=O)Nc1cccc(-n2c(=O)n(C3CC3)c(=O)c3c(Nc4ccc(I)cc4F)n(C)c(=O)c(C)c32)c1.C[S+](C)[O-] [GSK1120212B]", 8.18],
  ["C=CCNC1=C2C[C@@H](C)C[C@H](OC)[C@H](O)[C@@H](C)/C=C(\\C)[C@H](OC(N)=O)[C@@H](OC)/C=C\\C=C(/C)C(=O)NC(=CC1=O)C2=O", 6.62]
]}

###

Test system: panel of 55 breast cancer cell lines
measurementDescription: Cell growth inhibition assay (Cell Titer Glo, 72 h, 9 doses; GI50, TGI, LC50)
Type: cell-based, human
particulars: Homo sapiens, HCC1500, HCC1500 cell line; censored GI50 values; read-out: GI50 (converted)
GI50 for assorted molecules
property: GI50 (nM)

{"columns": ["compoundString", "property", "readoutValue"],
 "data": [
  ["CC(=O)O[C@@]12CO[C@@H]1C[C@H](O)[C@@]1(C)C(=O)[C@H](O)C3=C(C)[C@@H](OC(=O)[C@H](O)[C@@H](NC(=O)OC(C)(C)C)c4ccccc4)C[C@@](O)([C@@H](OC(=O)c4ccccc4)[C@H]21)C3(C)C", "GI50", 2.75],
  ["CC(=O)O[C@H]1C(=O)[C@@]2(C)[C@H]([C@H](OC(=O)c3ccccc3)[C@]3(O)C[C@H](OC(=O)[C@H](O)[C@@H](NC(=O)c4ccccc4)c4ccccc4)C(C)=C1C3(C)C)[C@]1(OC(C)=O)CO[C@@H]1C[C@@H]2O", "GI50", 7.94],
  ["CN(C)C/C=C/C(=O)Nc1cc2c(Nc3ccc(F)c(Cl)c3)ncnc2cc1O[C@H]1CCOC1", "GI50", 339]
]}
